assay_overview: Lipophilicity, log D of the compound
Assay type: physicochemical
reported_conditions: octanol/water
value_kind: logD
Lab note: jot the number down without any unit.

Query string: # input compound: `Cc1ccc(NC(=O)CCc2nnc(CCCC(C)C)n2C2CC2)c(C)c1` ; wanted: its logD
Result string: 3.9

Query string: Continue with Cc1ccc(NC(=O)CC(CCC(N)=O)c2nnc(CCCC(C)C)n2C2CC2)c(C)c1 (racemic)
Result string: 3.4

Query string: Try this compound too: Cc1ccc(NC(=O)CC(CCO)c2nnc(CCCC(C)C)n2C2CC2)c(C)c1 (racemic)
Result string: 3.5

Query string: Same question for `Cc1ccc(NC(=O)C[C@H](CCC(=O)[O-])c2noc(-c3ncc(CC(C)C)o3)c2C2CC2)c(Cl)c1.[Na+]` please.
Result string: 3.7

Query string: Then this compound: `Cc1ccc(NC(=O)C[C@H](CCC(=O)O)c2noc(-c3cc(CCC(C)C)on3)c2C2CC2)c(Cl)c1`
Result string: 4.3

* * *

assay_overview: Volume of distribution at steady state in CD(SD) rat at 1 mg/kg, iv
Assay type: ADME, organism-based
reported_conditions: in vivo, read-out: Vdss
value_kind: Vd (L/kg)
Give your result in L/kg as a bare value.

Query string: Given `CC(C)(C)Cc1cc(-c2onc([C@@H](CCC(=O)[O-])CC(=O)Nc3ccc(Cl)cc3Cl)c2C2CC2)no1.[Na+]` , state its recorded Vd.
Result string: 0.76

* * *

assay_overview: Lipophilicity, log D of the compound
Format: physicochemical
reported_conditions: octanol/water
Think of 4 as a floor: if logD stands on it or above, it is 1; beneath it, -1.

Query string: Hi, just wondering whether Cc1ccc(NC(=O)CC(CCC(=O)N(C)C)c2nnc(CCCC(C)C)n2C2CC2)c(C)c1 (racemic) shows logD of 4 or higher.
Result string: -1

Query string: Same thing, different compound: `CC(=O)N1C[C@H](C(=O)Nc2ccc(C)cc2C)[C@@H](c2nnc([C@H]3C[C@@H](CC(C)C)C3)n2C2CC2)C1`
Result string: 1

Query string: Now this one: `Cc1ccc(NC(=O)C[C@H](CCC(=O)O)c2noc(-c3cc(CC(C)(C)C)on3)c2C2CC2)c(Cl)c1`
Result string: 1

Query string: Please answer likewise for `CC(C)(C)C(F)(F)c1cc(-c2onc([C@@H](CCC(=O)O)CC(=O)Nc3ccc(Cl)cc3F)c2C2CC2)no1`
Result string: 1

* * *

assay_overview: Total body clearance in CD(SD) rat at 1 mg/kg, iv
Type: ADME, organism-based
reported_conditions: in vivo
value_kind: clearance (mL/min/kg)
The reply should be a number in mL/min/kg, with the unit left off.

Query string: I have this compound here, `CC(C)(C)Cc1cc(-c2onc([C@@H](CCC(=O)[O-])CC(=O)Nc3ccc(Cl)cc3Cl)c2C2CC2)no1.[Na+]` , and I need its recorded clearance.
Result string: 4.17

* * *

system_under_test: Cytochrome P450 3A4 (Homo sapiens)
Sequence (P08684 whole entry): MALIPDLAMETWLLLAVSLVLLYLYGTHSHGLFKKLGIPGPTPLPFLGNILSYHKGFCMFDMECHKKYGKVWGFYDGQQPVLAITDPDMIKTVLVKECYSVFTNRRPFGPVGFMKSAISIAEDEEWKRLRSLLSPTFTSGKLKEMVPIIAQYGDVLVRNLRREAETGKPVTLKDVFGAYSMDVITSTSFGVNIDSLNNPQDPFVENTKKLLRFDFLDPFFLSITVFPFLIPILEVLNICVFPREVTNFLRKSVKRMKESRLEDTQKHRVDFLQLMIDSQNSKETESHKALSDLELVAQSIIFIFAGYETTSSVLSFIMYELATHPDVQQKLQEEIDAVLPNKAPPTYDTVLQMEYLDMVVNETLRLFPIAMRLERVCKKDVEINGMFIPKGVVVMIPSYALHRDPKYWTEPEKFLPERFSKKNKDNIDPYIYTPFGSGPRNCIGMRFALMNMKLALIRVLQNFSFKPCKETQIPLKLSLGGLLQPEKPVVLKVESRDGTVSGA
assay_overview: Time-dependent inhibition of human CYP3A4 using testosterone as substrate
Format: ADME
pIC50: −log10 of the molar value.
value_kind: pIC50

Query string: Find the recorded pIC50 belonging to `CC(C)(C)Cc1cc(-c2onc([C@@H](CCC(=O)[O-])CC(=O)Nc3ccc(Cl)cc3Cl)c2C2CC2)no1.[Na+]` and report it.
Result string: < 4.30

* * *

assay_overview: Stability in human liver microsomes assessed as compound remaining after 60 mins
Assay type: ADME, Microsome
reported_conditions: read-out: Stability
value_kind: remaining at 1 h (%)
Entry rule: numbers only, all in %.

Query string: Look at this compound and give its reported remaining at 1 h. `CC(=O)N1C[C@H](C(=O)Nc2ccc(C)cc2C)[C@@H](c2nnc([C@H]3C[C@@H](CC(C)C)C3)n2C2CC2)C1`
Result string: 61

Query string: What do we get for `CC(C)(C)C(F)(F)c1cc(-c2onc([C@@H](CCC(=O)O)CC(=O)Nc3ccc(Cl)cc3F)c2C2CC2)no1` ?
Result string: 107

Query string: Next up: `Cc1ccc(NC(=O)C[C@H](CCC(=O)[O-])c2noc(-c3ncc(CC(C)C)s3)c2C2CC2)c(Cl)c1.[Na+]`
Result string: 82

Query string: Item: `Cc1ccc(NC(=O)C[C@H](CCC(=O)O)c2noc(-c3cc(C(F)(F)C(C)C)on3)c2C2CC2)c(Cl)c1`
Result string: 74

Query string: Request: `Cc1ccc(NC(=O)C[C@H](CCC(=O)[O-])c2noc(-c3nnc(CC(C)C)s3)c2C2CC2)c(Cl)c1.[Na+]`
Result string: 78

Query string: Please give the result for `Cc1ccc(NC(=O)C[C@H](CCC(=O)O)c2noc(-c3cc(C(F)(F)C(C)(C)C)on3)c2C2CC2)c(Cl)c1` too.
Result string: 77

Query string: Continue with `Cc1ccc(NC(=O)C[C@H](CCC(=O)[O-])c2noc(-c3cc(CC(C)C)on3)c2C2CC2)c(Cl)c1.[Na+]`
Result string: 74

* * *

system_under_test: UniProt P51449
Sequence (P51449 whole entry): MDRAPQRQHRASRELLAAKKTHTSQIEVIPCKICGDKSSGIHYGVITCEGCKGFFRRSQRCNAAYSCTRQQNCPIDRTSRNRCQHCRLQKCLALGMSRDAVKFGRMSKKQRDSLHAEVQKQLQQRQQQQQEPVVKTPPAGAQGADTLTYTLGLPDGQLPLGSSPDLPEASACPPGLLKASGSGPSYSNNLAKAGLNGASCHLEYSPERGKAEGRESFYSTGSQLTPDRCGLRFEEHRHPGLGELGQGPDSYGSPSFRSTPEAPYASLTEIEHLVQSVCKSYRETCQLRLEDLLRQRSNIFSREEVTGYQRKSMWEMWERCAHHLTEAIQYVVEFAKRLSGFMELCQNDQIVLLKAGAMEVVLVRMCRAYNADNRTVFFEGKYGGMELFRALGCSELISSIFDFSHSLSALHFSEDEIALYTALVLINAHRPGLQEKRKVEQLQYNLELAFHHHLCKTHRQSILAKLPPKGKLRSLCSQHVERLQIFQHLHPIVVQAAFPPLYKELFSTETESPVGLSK
assay_overview: Inhibition of human GAL4-fused RORgamma LBD transcriptional activity expressed in CHOK1 cells after 2 days by luciferase reporter gene assay
value_kind: pEC50
Note on pEC50: it is the negative log10 of concentration, concentration in mol/L.

Query string: Report pEC50 for `Cc1ccc(NC(=O)C[C@H](CCC(=O)[O-])c2noc(-c3cc(CC(C)C)on3)c2C2CC2)c(Cl)c1.[Na+]` please.
Result string: 7.85

Query string: Now give it for `CC(C)(C)C(F)(F)c1cc(-c2onc([C@@H](CCC(=O)O)CC(=O)Nc3ccc(Cl)cc3F)c2C2CC2)no1` too.
Result string: 8.15

Query string: Would you mind doing Cc1ccc(NC(=O)CC(CCC(=O)N(C)C)c2nnc(CCCC(C)C)n2C2CC2)c(C)c1 (racemic) as well?
Result string: 5.57

Query string: # repeat for `Cc1ccc(NC(=O)C[C@H](CCC(=O)O)c2noc(-c3cc(CC(C)(C)C)on3)c2C2CC2)c(Cl)c1`
Result string: 8.15

Query string: Quick one: `Cc1ccc(NC(=O)C[C@H](CCC(=O)[O-])c2noc(-c3ncc(CC(C)C)o3)c2C2CC2)c(Cl)c1.[Na+]`
Result string: 6.18

Query string: What do we get for CC(=O)NCCC(CC(=O)Nc1ccc(C)cc1C)c1nnc(CCCC(C)C)n1C1CC1 (racemic) ?
Result string: 4.96

Query string: What do you get for CNC(=O)CCC(CC(=O)Nc1ccc(C)cc1C)c1nnc(CCCC(C)C)n1C1CC1 (racemic) ?
Result string: 5.19

Query string: // next record `Cc1ccc(NC(=O)C[C@H](CCC(=O)O)c2noc(-c3ccc(CC(C)C)cc3)c2C2CC2)c(Cl)c1`
Result string: 7.36

Query string: Ok, now `CC(C)(C)C(F)(F)c1cc(-c2onc([C@@H](CCC(=O)O)CC(=O)Nc3ccc(F)cc3Cl)c2C2CC2)no1`
Result string: 8.22

Query string: And then `Cc1ccc(NC(=O)C[C@H](CCC(=O)[O-])c2noc(-c3cc(CC(C)C)no3)c2C2CC2)c(Cl)c1.[Na+]` , what is it?
Result string: 7.92

Query string: Also check `CCN(c1ccc(C(O)(C(F)(F)F)C(F)(F)F)cc1)S(=O)(=O)c1ccc([N+](=O)[O-])cc1`
Result string: 6.72

Query string: Follow-up entry: Cc1ccc(NC(=O)CC(CCN(C)C)c2nnc(CCCC(C)C)n2C2CC2)c(C)c1 (racemic)
Result string: 4.72

Query string: # repeat for `Cc1ccc(NC(=O)C[C@H](CCC(=O)[O-])c2noc(-c3cnc(CC(C)C)s3)c2C2CC2)c(Cl)c1.[Na+]`
Result string: 7.77

Query string: Repeat with `Cc1ccc(NC(=O)C[C@H](CCC(=O)O)c2noc(-c3cc(C(F)(F)C(C)(C)C)on3)c2C2CC2)c(Cl)c1`
Result string: 8.22

Query string: Next entry: Cc1ccc(NC(=O)CC(CCO)c2nnc(CCCC(C)C)n2C2CC2)c(C)c1 (racemic)
Result string: 6.36

Query string: Item: `Cc1ccc(NC(=O)C[C@H](CCC(=O)[O-])c2noc(-c3nnc(CC(C)C)s3)c2C2CC2)c(Cl)c1.[Na+]`
Result string: 7.25

Query string: Item: `Cc1ccc(NC(=O)C[C@H](CCC(=O)O)c2noc(-c3cc(C(F)(F)CC(C)C)on3)c2C2CC2)c(Cl)c1`
Result string: 8.10

Query string: Now consider `Cc1ccc(NC(=O)C[C@H](CCC(=O)O)c2noc(-c3cc(CCC(C)C)on3)c2C2CC2)c(Cl)c1` and answer again.
Result string: 8.10

Query string: Moving on to `CC(C)(C)Cc1cc(-c2onc([C@@H](CCC(=O)[O-])CC(=O)Nc3ccc(Cl)cc3Cl)c2C2CC2)no1.[Na+]`
Result string: 8.05

Query string: Request: `Cc1ccc(NC(=O)C[C@H](CCC(=O)[O-])c2noc(-c3noc(CC(C)C)n3)c2C2CC2)c(Cl)c1.[Na+]`
Result string: 7.21

Query string: Next compound: `Cc1ccc(NC(=O)C[C@H](CCC(=O)O)c2noc(-c3cc(C(F)(F)C(C)C)on3)c2C2CC2)c(Cl)c1`
Result string: 8.15

Query string: Similarly, `Cc1ccc(NC(=O)C[C@H](CCC(=O)[O-])c2noc(-c3ncc(CC(C)C)s3)c2C2CC2)c(Cl)c1.[Na+]` ?
Result string: 6.92

Query string: Next record, please: Cc1ccc(NC(=O)CC(CCC(N)=O)c2nnc(CCCC(C)C)n2C2CC2)c(C)c1 (racemic)
Result string: 4.80

Query string: Same thing, different compound: `Cc1ccc(NC(=O)C[C@H](CCC(=O)[O-])c2noc(-c3csc(CC(C)C)n3)c2C2CC2)c(Cl)c1.[Na+]`
Result string: 5.42
